SYSTEM: HIV-1 Rev protein RNA recognition element (RRE)
TEST_SUMMARY: Solid-phase assay: displacement of fluorescent Rev peptide from immobilized RRE
Format: binding
MEASUREMENT_CONTEXT: 15 ug/mL plasmid DNA (pGEM); read-out: IC50 (d) Solid-Phase + DNA
Kindly state pIC50 for each of the entries shown.
Give bare numbers, as −log10 of the molar value.

N=C(N)NCC1OC(OC2C(NC(=N)N)CC(NC(=N)N)C(OC3OC(CO)C(O)C(NC(=N)N)C3O)C2O)C(NC(=N)N)CC1O (stereo not drawn) [guanidino-tobramycin]    5.46
NC[C@H]1O[C@H](O[C@H]2[C@H](O)[C@@H](O[C@H]3O[C@H](CO)[C@@H](O)[C@H](N)[C@H]3O)[C@H](N)C[C@@H]2N)[C@H](O)[C@@H](O)[C@@H]1O [KanamycinA, Kanamycin A]    3.12
NC[C@H]1O[C@H](O[C@H]2[C@H](O)[C@@H](O[C@H]3O[C@H](CO)[C@@H](O)[C@H](N)[C@H]3O)[C@H](N)C[C@@H]2N)[C@H](N)[C@@H](O)[C@@H]1O [KanamycinB, Kanamycin B]    4.05
NC[C@H]1O[C@H](O[C@H]2[C@H](O)[C@@H](O[C@H]3O[C@H](CO)[C@@H](O)[C@H](N)[C@H]3O)[C@H](N)C[C@@H]2N)[C@H](N)C[C@@H]1O [Tobramycin]    4.30
N=C(N)NC[C@@H]1O[C@H](O[C@H]2[C@@H](O)[C@H](O[C@@H]3[C@@H](O)[C@H](NC(=N)N)C[C@H](NC(=N)N)[C@H]3O[C@H]3O[C@H](CNC(=N)N)[C@@H](O)[C@H](O)[C@H]3NC(=N)N)O[C@@H]2CO)[C@H](NC(=N)N)[C@@H](O)[C@@H]1O [guanidino-neomycin B, Guanidino Neomycin]    6.05

Let us examine a further case.
// query Please look up its pIC50: N=C(N)NCC1OC(OC2C(NC(=N)N)CC(NC(=N)N)C(OC3OC(CO)C(O)C(NC(=N)N)C3O)C2O)C(NC(=N)N)C(O)C1O (stereo not drawn) [guanidino-kanamycinB, Guanidino Kanamycin B]
// result 5.46

* * *

Please go through the items and note down their (e) Ratio (c)/(b).
Test system: HIV-1 Rev protein RNA recognition element (RRE)
TEST_SUMMARY: Solid-phase assay: displacement of fluorescent Rev peptide from immobilized RRE
Assay type: binding
MEASUREMENT_CONTEXT: IC50 with polyA-polyU divided by IC50 without competitor; proportional to RRE selectivity

# annotated cases, reported (e) Ratio (c)/(b) shown
N=C(N)NCC1OC(OC2C(CO)OC(OC3C(O)C(NC(=N)N)CC(NC(=N)N)C3OC3OC(CO)C(O)C(O)C3NC(=N)N)C2O)C(NC(=N)N)C(O)C1O (stereo not shown)    1.4
NC(N)=NC[C@@H]1O[C@H](O[C@H]2[C@H](O)[C@@H](O[C@H]3O[C@@H](CO)[C@H](O)[C@@H](N=C(N)N)[C@@H]3O)[C@H](N=C(N)N)C[C@@H]2N=C(N)N)[C@@H](O)[C@H](O)[C@H]1O    1.2
NC[C@H]1O[C@H](O[C@H]2[C@H](O)[C@@H](O[C@H]3O[C@H](CO)[C@@H](O)[C@H](N)[C@H]3O)[C@H](N)C[C@@H]2N)[C@H](N)[C@@H](O)[C@@H]1O    2.0
NC[C@@H]1O[C@H](O[C@H]2[C@@H](O)[C@H](O[C@@H]3[C@@H](O)[C@H](N)C[C@H](N)[C@H]3O[C@H]3O[C@H](CN)[C@@H](O)[C@H](O)[C@H]3N)O[C@@H]2CO)[C@H](N)[C@@H](O)[C@@H]1O    2.7
NC[C@H]1O[C@H](O[C@H]2[C@H](O)[C@@H](O[C@H]3O[C@H](CO)[C@@H](O)[C@H](N)[C@H]3O)[C@H](N)C[C@@H]2N)[C@H](N)C[C@@H]1O    3.1
N=C(N)NC[C@@H]1O[C@H](O[C@H]2[C@@H](O)[C@H](O[C@@H]3[C@@H](O)[C@H](NC(=N)N)C[C@H](NC(=N)N)[C@H]3O[C@H]3O[C@H](CNC(=N)N)[C@@H](O)[C@H](O)[C@H]3NC(=N)N)O[C@@H]2CO)[C@H](NC(=N)N)[C@@H](O)[C@@H]1O    5.6
NC[C@H]1O[C@H](O[C@H]2[C@H](O)[C@@H](O[C@H]3O[C@H](CO)[C@@H](O)[C@H](N)[C@H]3O)[C@H](N)C[C@@H]2N)[C@H](O)[C@@H](O)[C@@H]1O    1.9
NC[C@@H]1O[C@H](O[C@H]2[C@@H](O)[C@H](O[C@@H]3[C@@H](O)[C@H](N)C[C@H](N)[C@H]3O[C@H]3O[C@H](CO)[C@@H](O)[C@H](O)[C@H]3N)O[C@@H]2CO)[C@H](N)[C@@H](O)[C@@H]1O    2.0
N=C(N)NCC1OC(OC2C(NC(=N)N)CC(NC(=N)N)C(OC3OC(CO)C(O)C(NC(=N)N)C3O)C2O)C(NC(=N)N)C(O)C1O (stereo not shown)    1.6

Here's the next entry for you.
// query Report (e) Ratio (c)/(b) for N=C(N)NCC1OC(OC2C(NC(=N)N)CC(NC(=N)N)C(OC3OC(CO)C(O)C(NC(=N)N)C3O)C2O)C(NC(=N)N)CC1O (stereo not shown) tested on HIV-1 Rev protein RNA recognition element (RRE).
// result 1.7
